Target: Cytochrome P450 3A4 (Homo sapiens)
Assay: Inhibition of CYP3A4 (unknown origin)
Format: ADME
Below, each entry is listed with its recorded K.
Observed property: K (min⁻¹)

{"columns": ["Structure", "Observed property", "Scale unit", "Assay result"],
 "data": [
  ["C[C@@H]1COCCN1c1nc(N2CCOC[C@@H]2C)nc2sc(-c3cccc(O)c3)nc12", "K", "min⁻¹", 0.035],
  ["C[C@@H]1COCCN1c1nc(N2CCOCC2)nc2sc(-c3cc[nH]n3)nc12", "K", "min⁻¹", 0.011],
  ["C[C@@H]1COCCN1c1nc(N2CCOC[C@@H]2C)nc2sc(-c3cn[nH]c3)nc12", "K", "min⁻¹", 0.02],
  ["C[C@@H]1COCCN1c1nc(N2CCN(C)CC2)nc2sc(-c3cc[nH]n3)nc12", "K", "min⁻¹", 0.001],
  ["C[C@@H]1COCCN1c1nc(N2CCOC[C@@H]2C)nc2sc(-c3cn[nH]n3)nc12", "K", "min⁻¹", 0.01]
]}

----------
Target: Cytochrome P450 3A4 (Homo sapiens, UniProt P08684)
Sequence (P08684 whole entry): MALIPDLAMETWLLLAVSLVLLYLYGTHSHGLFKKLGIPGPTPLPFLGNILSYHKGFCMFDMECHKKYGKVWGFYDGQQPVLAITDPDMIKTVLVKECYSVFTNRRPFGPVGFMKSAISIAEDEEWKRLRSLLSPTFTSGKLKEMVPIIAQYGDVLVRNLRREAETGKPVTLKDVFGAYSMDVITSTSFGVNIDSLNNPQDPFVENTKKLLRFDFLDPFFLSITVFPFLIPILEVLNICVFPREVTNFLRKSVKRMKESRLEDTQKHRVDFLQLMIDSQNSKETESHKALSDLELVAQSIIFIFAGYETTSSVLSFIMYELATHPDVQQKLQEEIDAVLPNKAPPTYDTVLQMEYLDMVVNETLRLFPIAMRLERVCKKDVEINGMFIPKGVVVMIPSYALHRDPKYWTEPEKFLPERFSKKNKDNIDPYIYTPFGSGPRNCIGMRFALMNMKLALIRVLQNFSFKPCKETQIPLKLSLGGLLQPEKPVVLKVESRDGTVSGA
Assay: Inhibition of CYP3A4 (unknown origin)
Type: ADME
Mark label 0 for K values under 0.01 min⁻¹, and label 1 for everything at or above.

{"columns": ["Structure", "Class assignment"],
 "data": [
  ["C[C@@H]1COCCN1c1nc(N2CCOC[C@@H]2C)nc2[nH]c(-c3cccc4[nH]ccc34)nc12", "label 1"],
  ["C[C@@H]1COCCN1c1nc(N2CCOC[C@@H]2C)nc2sc(-c3cc[nH]n3)nc12", "label 0"],
  ["C[C@@H]1COCCN1c1nc(N2CCOC[C@@H]2C)nc2sc(-c3cccc4[nH]ccc34)nc12", "label 1"],
  ["C[C@@H]1COCCN1c1nc(C2CCOCC2)nc2sc(-c3cc[nH]n3)nc12", "label 0"],
  ["CC(C)c1nc(N2CCOC[C@H]2C)c2nc(-c3cc[nH]n3)sc2n1", "label 1"],
  ["C[C@@H]1COCCN1c1nc(N2CCOC[C@@H]2C)nc2sc(-c3c[nH]cn3)nc12", "label 1"],
  ["C[C@@H]1COCCN1c1nc(CN2CCOCC2)nc2sc(-c3cc[nH]n3)nc12", "label 0"],
  ["C[C@@H]1COCCN1c1nc(N2CCCOCC2)nc2sc(-c3cc[nH]n3)nc12", "label 1"],
  ["C[C@@H]1COCCN1c1ncnc2sc(-c3cc[nH]n3)nc12", "label 0"]
]}

----------
Experiment: Clearance in Sprague-Dawley rat at 1 mg/kg, iv or 3 mg/kg, po by HPLC analysis
Assay type: ADME, organism-based
Conditions: in vivo

{"columns": ["Structure", "clearance (mL/min/kg)"],
 "data": [
  ["C[C@@H]1COCCN1c1nc(N2CCOC[C@@H]2C)nc2sc(-c3cc[nH]n3)nc12", 9.5]
]}

----------
Below: a set of entries, each annotated with reported efflux ratio.
Tested on: MDR1
Assay: Efflux ratio of permeability from basolateral to apical over apical to basolateral side in MDCK-MDR1 cells
Assay type: ADME, cell-based, Canis lupus familiaris
Settings: dog
Observed property: efflux ratio

{"columns": ["Structure", "Assay result"],
 "data": [
  ["C[C@@H]1COCCN1c1nc(N2CCOC[C@@H]2C)nc2sc(-c3cn[nH]n3)nc12", 0.65],
  ["C[C@@H]1COCCN1c1nc(N2CCOC[C@@H]2C)nc2sc(-c3c[nH]cn3)nc12", 0.89],
  ["C[C@@H]1COCCN1c1nc(N2CCOC[C@@H]2C)nc2sc(-c3cc[nH]n3)nc12", 0.93],
  ["C[C@@H]1COCCN1c1nc(N2CCOC[C@@H]2C)nc2[nH]c(-c3cccc4[nH]ccc34)nc12", 0.95]
]}
